Target: Ribosomal protein S6 kinase alpha-3 (Homo sapiens, UniProt P51812)
Sequence (P51812 whole entry): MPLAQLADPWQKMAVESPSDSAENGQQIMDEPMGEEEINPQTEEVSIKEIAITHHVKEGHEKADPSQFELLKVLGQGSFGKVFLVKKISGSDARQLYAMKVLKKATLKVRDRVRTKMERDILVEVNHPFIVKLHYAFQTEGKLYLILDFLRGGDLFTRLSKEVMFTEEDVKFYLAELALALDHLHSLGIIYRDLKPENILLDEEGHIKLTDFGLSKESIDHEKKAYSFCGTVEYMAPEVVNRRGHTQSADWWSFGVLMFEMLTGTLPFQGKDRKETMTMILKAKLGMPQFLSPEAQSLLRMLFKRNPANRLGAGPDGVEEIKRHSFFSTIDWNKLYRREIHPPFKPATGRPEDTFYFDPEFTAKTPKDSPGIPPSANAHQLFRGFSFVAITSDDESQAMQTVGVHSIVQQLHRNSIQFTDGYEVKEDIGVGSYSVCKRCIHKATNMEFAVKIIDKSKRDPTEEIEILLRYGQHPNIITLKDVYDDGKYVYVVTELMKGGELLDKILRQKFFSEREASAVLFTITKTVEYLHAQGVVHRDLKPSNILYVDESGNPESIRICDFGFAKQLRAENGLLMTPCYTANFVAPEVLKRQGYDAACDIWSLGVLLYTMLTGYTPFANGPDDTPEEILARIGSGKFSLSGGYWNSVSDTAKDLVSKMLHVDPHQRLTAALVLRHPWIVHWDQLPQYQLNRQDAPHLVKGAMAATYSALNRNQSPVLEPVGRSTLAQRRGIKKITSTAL
Exercise: state measured pIC50 for each of the compounds provided.
One number for each entry, as −log10 of the molar value.

The cases that follow already have their pIC50 on record.
>>> df
                                       smi  numeric_readout
0         O=C1NC(=S)NC(=O)C1=NNc1ccc(O)cc1             5.66
1  O=C1NC(=S)NC(=O)C1=NNc1ccc(N2CCOCC2)cc1             5.03
2       O=C1NC(=O)C(=NNc2ccc(O)cc2)C(=O)N1             5.71

Query string: Dear colleague, please send me the reported pIC50 for "O=C1NC(=O)C(=NNc2ccc(N3CCOCC3)cc2)C(=O)N1" when you can.
Result string: 5.29
